The reported numbers originate from the kinase profiling compilation of Christmann-Franck et al. (2016).

Target: PDPK1 (human) (UniProt O15530)
Sequence (O15530 whole entry, looked up): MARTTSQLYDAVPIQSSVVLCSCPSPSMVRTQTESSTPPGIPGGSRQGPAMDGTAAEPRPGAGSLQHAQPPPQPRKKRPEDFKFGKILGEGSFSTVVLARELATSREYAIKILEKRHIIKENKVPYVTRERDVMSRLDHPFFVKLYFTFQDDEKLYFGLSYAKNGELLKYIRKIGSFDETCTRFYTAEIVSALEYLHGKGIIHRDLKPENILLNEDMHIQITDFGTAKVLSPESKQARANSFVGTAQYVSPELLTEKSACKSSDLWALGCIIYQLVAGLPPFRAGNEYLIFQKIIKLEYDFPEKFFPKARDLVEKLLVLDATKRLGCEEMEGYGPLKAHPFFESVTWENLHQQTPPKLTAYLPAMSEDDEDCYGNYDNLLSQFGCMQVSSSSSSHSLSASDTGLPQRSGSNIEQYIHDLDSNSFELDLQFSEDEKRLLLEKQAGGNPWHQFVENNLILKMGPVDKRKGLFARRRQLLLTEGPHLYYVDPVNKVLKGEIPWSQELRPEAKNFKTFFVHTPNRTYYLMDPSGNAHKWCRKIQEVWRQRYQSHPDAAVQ
Assay: radiometric filter-binding kinase assay
Conditions: compound 100.0 µM; ATP 50 µM
property measured: inhibition (%)

Example entries and their recorded answers appear below.
# compound, inhibition [%]
records = [
    ("Nc1cnc2c(-c3c(F)cccc3F)cccn2c1=O", 57),
    ("Nc1nc2cnc(-c3ccccc3)cn2n1", 6),
    ("O=C(c1cccc(-c2cc3c(=O)[nH]cnc3s2)c1)N1CCOCC1", 53),
    ("CC(=O)Nc1nc2cnc(-c3c(C)cccc3C)cn2n1", 0),
    ("O=c1cc(-c2ccccc2F)nc2[nH]ccn12", 15),
]

I. CC(C)(C)Nc1c(COCc2ccccc2)nc2[nH]cnn12
II. O=C(Nc1cnc2[nH]ccn2c1=O)c1ccccc1
III. CC1CN(c2nc3ccccn3c(=O)c2N)CC(C)O1 (stereo not given)
IV. CC(=O)Nc1nc2cnc(-c3ccccc3)cn2n1
V. O=c1c(NC(=S)NCc2ccccc2)cnc2[nH]ccn12
Exercise: Arrange these 5 compounds in increasing order of inhibition. # format: label list in the order the request specifies
Key: V, II, I, IV, III

a. COc1ccc(NC(=S)Nc2cnc3[nH]cnn3c2=O)cn1
b. O=C(Nc1cnc2[nH]cnn2c1=O)c1ccccc1
c. COc1ccc(-c2cc3c(=O)[nH]cnc3s2)cc1OC
Exercise: Thanks in advance: please rank these 3 entries by inhibition, highest to lowest. # output: labels, in the requested order
Key: c, a, b
(c: 25%, a: 10%, b: 0%)
